All values here come from patent US10168342B2.

ASSAYED SYSTEM: AEA-DA lipid probe targets in Neuro2a cells (Mus musculus, UniProt P00375)
Sequence (P00375 whole entry): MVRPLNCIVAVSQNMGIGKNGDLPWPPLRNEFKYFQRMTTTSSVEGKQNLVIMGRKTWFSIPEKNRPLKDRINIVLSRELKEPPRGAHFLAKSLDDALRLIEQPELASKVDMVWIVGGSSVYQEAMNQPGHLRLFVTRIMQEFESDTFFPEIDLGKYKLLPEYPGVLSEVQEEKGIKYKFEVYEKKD
TEST SETTINGS: competitor 25 μM
PROPERTY LABEL: SILAC ratio Dhfr
# output: bare number, no unit

Observed SILAC ratio Dhfr on AEA-DA lipid probe targets in Neuro2a cells (Mus musculus, UniProt P00375), entry C=CCN(C)CCCCCCOc1ccc(C(=O)c2ccc(Br)cc2)c(F)c1 [Ro 48-8071, reference compound] , equals 0.8

Observed SILAC ratio Dhfr on AEA-DA lipid probe targets in Neuro2a cells (Mus musculus, UniProt P00375), entry CN1CCN(C(=O)c2c(-c3ccccc3)c3cc([N+](=O)[O-])ccc3n2C)CC1 , equals 1.4

Observed SILAC ratio Dhfr on AEA-DA lipid probe targets in Neuro2a cells (Mus musculus, UniProt P00375), entry O=C(/C=C/c1cccnc1)NCCCCC1CCN(C(=O)c2ccccc2)CC1 [FK-866, reference compound] , equals 1.2

Observed SILAC ratio Dhfr on AEA-DA lipid probe targets in Neuro2a cells (Mus musculus, UniProt P00375), entry CN1CCN(C(=O)c2[nH]c3ccc([N+](=O)[O-])cc3c2-c2ccccc2)CC1 , equals 1.6

###

ASSAYED SYSTEM: AEA-DA lipid probe targets in Neuro2a cells (Mus musculus, UniProt Q9D6K9)
Sequence (Q9D6K9 1-414): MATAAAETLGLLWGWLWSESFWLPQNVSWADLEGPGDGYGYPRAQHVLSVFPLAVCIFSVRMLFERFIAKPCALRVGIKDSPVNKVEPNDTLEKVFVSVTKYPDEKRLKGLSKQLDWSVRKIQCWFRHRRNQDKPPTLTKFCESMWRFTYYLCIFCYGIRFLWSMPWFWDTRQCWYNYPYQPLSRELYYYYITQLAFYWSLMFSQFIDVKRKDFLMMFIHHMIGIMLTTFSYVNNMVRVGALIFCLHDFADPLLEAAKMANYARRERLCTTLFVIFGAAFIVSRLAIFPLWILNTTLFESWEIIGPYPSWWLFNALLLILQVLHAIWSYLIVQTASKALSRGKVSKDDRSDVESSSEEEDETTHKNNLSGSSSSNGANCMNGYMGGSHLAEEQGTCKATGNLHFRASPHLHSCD
TEST SETTINGS: competitor 25 μM
Please provide measured SILAC ratio, Cers5 for the entries that follow.
# output: bare number, no unit

Recorded SILAC ratio, Cers5 (compound CN1CCN(C(=O)c2[nH]c3ccc([N+](=O)[O-])cc3c2-c2ccccc2)CC1 [MJN228] ): 1.8

Recorded SILAC ratio, Cers5 (compound CN1CCN(C(=O)c2c(-c3ccccc3)c3cc([N+](=O)[O-])ccc3n2C)CC1 [KML110] ): 1.6

Recorded SILAC ratio, Cers5 (compound O=C(/C=C/c1cccnc1)NCCCCC1CCN(C(=O)c2ccccc2)CC1 [FK-866, reference compound] ): 1.1

Recorded SILAC ratio, Cers5 (compound C=CCN(C)CCCCCCOc1ccc(C(=O)c2ccc(Br)cc2)c(F)c1 [Ro 48-8071, reference compound] ): 1.3

###

ASSAYED SYSTEM: AEA-DA lipid probe targets in Neuro2a cells (Mus musculus, UniProt Q8BMG8)
Sequence (Q8BMG8 whole entry): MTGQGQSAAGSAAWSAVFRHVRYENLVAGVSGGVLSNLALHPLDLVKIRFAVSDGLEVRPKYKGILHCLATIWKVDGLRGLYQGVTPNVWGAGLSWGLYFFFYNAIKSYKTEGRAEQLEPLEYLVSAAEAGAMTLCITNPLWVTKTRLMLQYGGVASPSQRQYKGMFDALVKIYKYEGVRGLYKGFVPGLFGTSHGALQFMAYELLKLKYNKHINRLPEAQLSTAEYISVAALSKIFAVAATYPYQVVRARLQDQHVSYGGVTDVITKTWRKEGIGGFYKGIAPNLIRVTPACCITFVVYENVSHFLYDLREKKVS
TEST SETTINGS: competitor 25 μM
PROPERTY LABEL: SILAC ratio, Slc25a32

Recorded SILAC ratio, Slc25a32 (molecule C=CCN(C)CCCCCCOc1ccc(C(=O)c2ccc(Br)cc2)c(F)c1 [Ro 48-8071, reference compound] ): 1.1

Recorded SILAC ratio, Slc25a32 (molecule O=C(/C=C/c1cccnc1)NCCCCC1CCN(C(=O)c2ccccc2)CC1 [FK-866, reference compound] ): 1.1

Recorded SILAC ratio, Slc25a32 (molecule CN1CCN(C(=O)c2c(-c3ccccc3)c3cc([N+](=O)[O-])ccc3n2C)CC1 ): 1.5

Recorded SILAC ratio, Slc25a32 (molecule CN1CCN(C(=O)c2[nH]c3ccc([N+](=O)[O-])cc3c2-c2ccccc2)CC1 ): 1.5

###

Please provide measured SILAC ratio Csnk1a1 for the entries that follow.
ASSAYED SYSTEM: AEA-DA lipid probe targets in Neuro2a cells (Mus musculus, UniProt Q8BK63)
Sequence (Q8BK63 whole entry): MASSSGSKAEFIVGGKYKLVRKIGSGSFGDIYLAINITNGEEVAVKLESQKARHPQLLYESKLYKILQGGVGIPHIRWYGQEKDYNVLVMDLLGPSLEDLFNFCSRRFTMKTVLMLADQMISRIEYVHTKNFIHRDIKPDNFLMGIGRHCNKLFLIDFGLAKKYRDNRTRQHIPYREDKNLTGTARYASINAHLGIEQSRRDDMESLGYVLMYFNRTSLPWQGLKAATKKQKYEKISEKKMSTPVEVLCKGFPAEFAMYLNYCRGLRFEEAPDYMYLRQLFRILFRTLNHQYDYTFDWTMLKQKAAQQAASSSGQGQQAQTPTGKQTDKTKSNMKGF
TEST SETTINGS: competitor 25 μM
# output: bare number, no unit

Recorded SILAC ratio Csnk1a1 (molecule CN1CCN(C(=O)c2[nH]c3ccc([N+](=O)[O-])cc3c2-c2ccccc2)CC1 ): 1.4

Recorded SILAC ratio Csnk1a1 (molecule O=C(/C=C/c1cccnc1)NCCCCC1CCN(C(=O)c2ccccc2)CC1 [FK-866, reference compound] ): 1.5

Recorded SILAC ratio Csnk1a1 (molecule CN1CCN(C(=O)c2c(-c3ccccc3)c3cc([N+](=O)[O-])ccc3n2C)CC1 ): 1.5

Recorded SILAC ratio Csnk1a1 (molecule C=CCN(C)CCCCCCOc1ccc(C(=O)c2ccc(Br)cc2)c(F)c1 [Ro 48-8071, reference compound] ): 0.9

###

ASSAYED SYSTEM: AEA-DA lipid probe targets in Neuro2a cells (Mus musculus, UniProt Q3TZX3)
Sequence (Q3TZX3 whole entry): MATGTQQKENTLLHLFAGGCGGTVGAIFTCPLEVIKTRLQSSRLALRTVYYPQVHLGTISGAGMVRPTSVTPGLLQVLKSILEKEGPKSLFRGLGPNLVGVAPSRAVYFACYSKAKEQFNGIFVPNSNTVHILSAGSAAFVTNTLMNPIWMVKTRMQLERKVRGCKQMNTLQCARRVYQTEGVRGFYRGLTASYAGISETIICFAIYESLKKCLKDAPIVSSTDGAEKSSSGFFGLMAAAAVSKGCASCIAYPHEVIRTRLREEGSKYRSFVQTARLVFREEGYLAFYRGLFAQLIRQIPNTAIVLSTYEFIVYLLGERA
TEST SETTINGS: competitor 25 μM
PROPERTY LABEL: SILAC ratio Slc25a33

Observed SILAC ratio Slc25a33 on AEA-DA lipid probe targets in Neuro2a cells (Mus musculus, UniProt Q3TZX3), entry CN1CCN(C(=O)c2c(-c3ccccc3)c3cc([N+](=O)[O-])ccc3n2C)CC1 , equals 1.4

Observed SILAC ratio Slc25a33 on AEA-DA lipid probe targets in Neuro2a cells (Mus musculus, UniProt Q3TZX3), entry CN1CCN(C(=O)c2[nH]c3ccc([N+](=O)[O-])cc3c2-c2ccccc2)CC1 , equals 1.2

Observed SILAC ratio Slc25a33 on AEA-DA lipid probe targets in Neuro2a cells (Mus musculus, UniProt Q3TZX3), entry C=CCN(C)CCCCCCOc1ccc(C(=O)c2ccc(Br)cc2)c(F)c1 [Ro 48-8071, reference compound] , equals 1.0

Observed SILAC ratio Slc25a33 on AEA-DA lipid probe targets in Neuro2a cells (Mus musculus, UniProt Q3TZX3), entry O=C(/C=C/c1cccnc1)NCCCCC1CCN(C(=O)c2ccccc2)CC1 [FK-866, reference compound] , equals 1.2

###

ASSAYED SYSTEM: AEA-DA lipid probe targets in Neuro2a cells (Mus musculus, UniProt O88696)
Sequence (O88696 53-272): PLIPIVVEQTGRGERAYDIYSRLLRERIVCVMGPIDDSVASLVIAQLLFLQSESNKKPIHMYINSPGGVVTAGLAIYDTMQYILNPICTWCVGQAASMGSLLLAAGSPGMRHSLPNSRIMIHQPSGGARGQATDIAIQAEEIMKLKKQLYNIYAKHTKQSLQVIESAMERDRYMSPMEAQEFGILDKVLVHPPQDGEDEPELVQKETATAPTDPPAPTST
TEST SETTINGS: competitor 25 μM
PROPERTY LABEL: SILAC ratio Clpp
# output: bare number, no unit

Observed SILAC ratio Clpp on AEA-DA lipid probe targets in Neuro2a cells (Mus musculus, UniProt O88696), entry CN1CCN(C(=O)c2c(-c3ccccc3)c3cc([N+](=O)[O-])ccc3n2C)CC1 , equals 2.4

Observed SILAC ratio Clpp on AEA-DA lipid probe targets in Neuro2a cells (Mus musculus, UniProt O88696), entry CN1CCN(C(=O)c2[nH]c3ccc([N+](=O)[O-])cc3c2-c2ccccc2)CC1 , equals 2.1

Observed SILAC ratio Clpp on AEA-DA lipid probe targets in Neuro2a cells (Mus musculus, UniProt O88696), entry O=C(/C=C/c1cccnc1)NCCCCC1CCN(C(=O)c2ccccc2)CC1 [FK-866, reference compound] , equals 1.0

Observed SILAC ratio Clpp on AEA-DA lipid probe targets in Neuro2a cells (Mus musculus, UniProt O88696), entry C=CCN(C)CCCCCCOc1ccc(C(=O)c2ccc(Br)cc2)c(F)c1 [Ro 48-8071, reference compound] , equals 0.9

###

Please provide measured SILAC ratio Eif3e for the entries that follow.
ASSAYED SYSTEM: AEA-DA lipid probe targets in Neuro2a cells (Mus musculus, UniProt P60229)
Sequence (P60229 whole entry): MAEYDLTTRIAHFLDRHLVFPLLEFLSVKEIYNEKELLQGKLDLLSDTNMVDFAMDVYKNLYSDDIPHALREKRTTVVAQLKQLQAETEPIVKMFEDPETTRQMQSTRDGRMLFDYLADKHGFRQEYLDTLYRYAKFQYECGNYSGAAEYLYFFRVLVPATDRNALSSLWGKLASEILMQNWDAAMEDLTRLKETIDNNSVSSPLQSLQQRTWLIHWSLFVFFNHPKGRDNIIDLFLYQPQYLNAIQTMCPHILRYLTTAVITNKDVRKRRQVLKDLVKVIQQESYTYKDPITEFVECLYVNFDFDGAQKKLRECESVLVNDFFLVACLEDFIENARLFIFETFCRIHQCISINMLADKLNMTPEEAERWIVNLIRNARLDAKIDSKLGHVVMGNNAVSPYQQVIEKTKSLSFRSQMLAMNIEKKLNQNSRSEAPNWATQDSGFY
TEST SETTINGS: competitor 25 μM

Observed SILAC ratio Eif3e on AEA-DA lipid probe targets in Neuro2a cells (Mus musculus, UniProt P60229), entry CN1CCN(C(=O)c2c(-c3ccccc3)c3cc([N+](=O)[O-])ccc3n2C)CC1 , equals 1.4

Observed SILAC ratio Eif3e on AEA-DA lipid probe targets in Neuro2a cells (Mus musculus, UniProt P60229), entry O=C(/C=C/c1cccnc1)NCCCCC1CCN(C(=O)c2ccccc2)CC1 [FK-866, reference compound] , equals 1.1

Observed SILAC ratio Eif3e on AEA-DA lipid probe targets in Neuro2a cells (Mus musculus, UniProt P60229), entry CN1CCN(C(=O)c2[nH]c3ccc([N+](=O)[O-])cc3c2-c2ccccc2)CC1 , equals 1.1

Observed SILAC ratio Eif3e on AEA-DA lipid probe targets in Neuro2a cells (Mus musculus, UniProt P60229), entry C=CCN(C)CCCCCCOc1ccc(C(=O)c2ccc(Br)cc2)c(F)c1 [Ro 48-8071, reference compound] , equals 0.8

###

Please provide measured SILAC ratio Them6 for the entries that follow.
ASSAYED SYSTEM: AEA-DA lipid probe targets in Neuro2a cells (Mus musculus)
TEST SETTINGS: competitor 25 μM

Recorded SILAC ratio Them6 (molecule CN1CCN(C(=O)c2[nH]c3ccc([N+](=O)[O-])cc3c2-c2ccccc2)CC1 ): 1.3

Recorded SILAC ratio Them6 (molecule O=C(/C=C/c1cccnc1)NCCCCC1CCN(C(=O)c2ccccc2)CC1 [FK-866, reference compound] ): 1.0

Recorded SILAC ratio Them6 (molecule C=CCN(C)CCCCCCOc1ccc(C(=O)c2ccc(Br)cc2)c(F)c1 [Ro 48-8071, reference compound] ): 1.0

Recorded SILAC ratio Them6 (molecule CN1CCN(C(=O)c2c(-c3ccccc3)c3cc([N+](=O)[O-])ccc3n2C)CC1 ): 1.3
